target: Muscarinic acetylcholine receptor; experiment: In vitro inhibition of [3H]QNB binding to Muscarinic receptor from rat cortical homogenates
Parameter IC50: see the listing below.

Input Cc1cn(C2CN3CCC2CC3)nn1 (centres undefined) . Output IC50: 20 µM

# IC50 of Cn1nnnc1C1CN2CCC1CC2 (centres undefined) = 60 µM

Others:
Lab book: IC50 of Cn1cc(C2CN3CCC2CC3)nn1 (centres undefined) noted as 53 µM

`O=C1CCCN1CC#CCN1CCCC1` has a reported IC50 of 3.3 µM

---

Reported IC50 values for the following molecules.
molecular target: Muscarinic acetylcholine receptor; assay: Compound was tested in vitro for its binding affinity to muscarinic acetylcholine receptor from rat cortical homogenates using [3H]OXO-M as radioligand
Number only, in nM; omit the unit.

A selection of reference data follows.
Documented IC50 of Cc1nnn(C2CN3CCC2CC3)n1 (stereo not given) : 30

Reported IC50 ( c1nnnn1C1CN2CCC1CC2 (stereo not given) ) = 2300

IC50 reported for this molecule Cc1cnnn1C1CN2CCC1CC2 (stereo not given) : 6700

New cases:
The value of IC50 measured for the molecule C[N+](C)(C)CC#CCN1CCCC1=O.[I-] [OXOTREMORINE METHIODIDE] turned out to be 13

// c1ncn(C2CN3CCC2CC3)n1 (stereo not given) : IC50 value = 430

---

Quick reference for log10 IC50 among some molecules
molecular target: Muscarinic acetylcholine receptor; test: In vitro inhibition of [3H]OXO-M binding to Muscarinic receptor from rat cortical homogenates
Transform log10 | Measure IC50 | Unit nM

Note to self: log10 IC50 recorded for Cn1nncc1C1CN2CCC1CC2 (configuration not stated) was 2.97

# ---- query molecule ----
Form: molecule = c1nncn1C1CN2CCC1CC2 (configuration not stated) ; log10 IC50 = 4.60

---

target: Muscarinic acetylcholine receptor (Rattus norvegicus) (UniProt P08482+P08483+P08485+P08911+P10980); test: Ratio of IC50(QNB) to IC50(OXO-M) was determined; format: protein assay
Here, each record is paired with measured Ratio data.
Note: the reply should be a number with no unit written.

According to the records, this molecule Cc1nnn(C2CN3CCC2CC3)n1 (stereo not given) displays Ratio of 92

***
Sure, the documented Ratio for Cc1cnnn1C1CN2CCC1CC2 (stereo not given) is 4.9

For reference, reported Ratio for c1ncn(C2CN3CCC2CC3)n1 (stereo not given) stands at 65

Reported Ratio ( c1nnnn1C1CN2CCC1CC2 (stereo not given) ) = 49

Measured Ratio of C[N+](C)(C)CC#CCN1CCCC1=O.[I-] [OXOTREMORINE METHIODIDE] : 1820

---

biological target: Muscarinic acetylcholine receptor; assay: In vitro inhibition of [3H]QNB binding to Muscarinic receptor from rat cortical homogenates
Reported log10 of IC50 values for a set of compounds
Units before log transform: µM; reported quantity: IC50; transform: log10.

c1nnn(C2CN3CCC2CC3)n1 (stereo not drawn) has a reported log10 of IC50 of 1.20

Reported log10 of IC50 ( Cn1nncc1C1CN2CCC1CC2 (stereo not drawn) ) = 1.46

For record Cn1ncc(C2CN3CCC2CC3)n1 (stereo not drawn) the listed log10 of IC50 is 0.65

According to the records, this compound Cn1nnc(C2CN3CCC2CC3)n1 (stereo not drawn) displays log10 of IC50 of 0.71

New cases:
// c1nncn1C1CN2CCC1CC2 (stereo not drawn) : log10 of IC50 value = 2.22

Given item Cn1cnc(C2CN3CCC2CC3)n1 (stereo not drawn) , the value recorded as its log10 of IC50 is 1.48

Form: compound = Cc1ncn(C2CN3CCC2CC3)n1 (stereo not drawn) ; log10 of IC50 = 0.65

Lab book: log10 of IC50 of Cc1cnn(C2CN3CCC2CC3)n1 (stereo not drawn) noted as 0.20
